Tested on: colon cancer cell line HCT-15
Assay: Growth inhibition, sulforhodamine-based protein determination, HCT-15
Format: cell-based
Conditions: Homo sapiens, HCT-15, 144 h; continuous exposure six days
Method: The novel compound SR 13179 was assayed for its ability to inhibit growth in several cancer cell lines. The cell lines studied included breast cancer cell line MCF-7 (ER+); prostate cancer cell lines LNCaP, PC3, and DU145; lung cancer cell line A427; ovarian cancer cell lines IGROV1, OVCAR-3, OVCAR-4, OVCAR-5, OVCAR-8, and SK-OV-3; and colon cancer cell lines COLO 205, HCC-2998, HCT-116, HCT-15, HT29, KM12, AND SW-620. […]
Measurement Kind: IC50 (nM)
Answers are plain numbers, in nM.

Request: # input molecule: COc1cc(C2CC(O)c3ccc4ccccc4c3O2)cc(OC)c1OC (stereo not shown) [SR 13179] ; wanted: its IC50
Result: 270
